- Tested on: MDA-N
- test: NCI tumour cell line growth inhibition, 48 h
Active and inactive are the calls of the source. No stated cut-off is given here; in the data, active = GI50 up to about 1.1 µM and inactive = higher.
Outcome codes: y (active), n (inactive)

{"columns": ["compound", "assigned_category"],
 "data": [
  ["COc1ccc(/C=C2/SC(c3ccc(Cl)cc3)N(NC(=O)CCCCCCCCC(=O)NN3C(=O)/C(=C\\c4ccc(OC)c(OC)c4)SC3c3ccc(Cl)cc3)C2=O)cc1OC (stereo unspecified)", "n"],
  ["N=C(N)NS(=O)(=O)c1ccc(NNc2c3ccccc3nc3c(C(=O)Nc4ccc(S(N)(=O)=O)cc4)cccc23)cc1", "n"],
  ["COc1cc(CNC(=O)CCCCCCCCCCSC#N)ccc1O", "n"],
  ["Cc1ccc2nc(-c3ccccc3)cc(=O)n2c1", "n"],
  ["Cc1ccc(C)c(COCCOCn2c(=O)[nH]c(=O)c3cc(Br)ccc32)c1", "n"],
  ["Cc1nc2sc3cccc(Cl)c3n2c(=O)c1/N=N/c1ccc(Cl)cc1", "n"],
  ["CC(=O)O[C@H]1[C@@H](N2CCN(C)CC2)C[C@H]2[C@@H]3CC=C4C[C@@H](N5CCCC5)CC[C@]4(C)[C@H]3CC[C@@]21C", "n"],
  ["Cc1ccc2c(c1)C=CC1(O2)N(c2ccccc2)C(=S)OC1(C)C (stereo unspecified)", "n"],
  ["COC(=O)C1=C(OC(=O)/C(=C/c2ccccc2)c2ccc(Cl)cc2Cl)C(C(=O)OC)[C@@]2(O)[C@@H](C(=O)OC)[C@H](C)C[C@@H]1[C@@H]2C(=O)OC (stereo partly specified)", "n"],
  ["CSc1nc(NC(C)C)c2c(n1)Sc1nc3ccccc3n1C2O (stereo unspecified)", "n"],
  ["CCN(CC)CCCC(C)Nc1c2ccc(Cl)cc2nc2ccc(OC)cc12 (stereo unspecified)", "n"],
  ["COC(=O)c1ccc(/C=C2\\CCc3ccccc3C2=O)cc1", "n"],
  ["COc1ccc(NCC(=O)Nn2c(C)nc3ccc(S(=O)(=O)Nc4ccc(OC)cc4)cc3c2=O)cc1", "n"],
  ["C=Cc1nc(C#N)c(N)o1", "n"],
  ["COc1ccccc1/N=N/C(=N/NC(=O)c1ccc(C)cc1)c1ccc(N(CCC#N)CCC#N)cc1OC", "n"],
  ["N#CC(N)c1ccc(OCCCCCCCCCCOc2ccc(C(N)C#N)cc2)cc1 (stereo unspecified)", "n"],
  ["CCC12CCCN(Cc3ccccc3)C1c1c([nH]c3ccccc13)C(C(=O)OC)C2 (stereo unspecified)", "n"],
  ["N#Cc1c(Nc2nc3ccccc3s2)c2ccccc2n2c1nc1ccccc12", "n"],
  ["CCCNC(=O)c1cc(NC(=O)c2cc(NC(=O)CCS(=O)(=O)OC)cn2C)cn1C", "n"],
  ["Cc1ccc(S(=O)(=O)Nn2c(-c3ccccc3)c(C#N)c(-c3ccc([N+](=O)[O-])cc3)c(C#N)c2=O)cc1", "n"],
  ["O=C1c2cc3c(cc2CC12Cc1ccccc1C2)CCC3", "n"],
  ["CCOC(=O)c1cn2c(n1)sc1cc(Cl)ccc12", "n"],
  ["CCCCCC/C=C/C#CCCCCCCCC(=O)O", "n"],
  ["COc1ccc(/C=C/C(=N/NC(=O)N/N=C(/C=C/c2ccc(OC)cc2)C(C)C)C(C)C)cc1", "n"],
  ["CCC1=NC(C(F)(F)F)(C(F)(F)F)N=C(/N=C(/N)N(C)C(C(C)C)P(=O)(OC(C)C)OC(C)C)O1 (stereo unspecified)", "n"],
  ["CCOC(=O)C1C(=O)CC(O)(c2ccccc2)C(C(=O)OCC)C1c1ccc(OC)cc1 (stereo unspecified)", "n"],
  ["COc1cc([C@@H]2c3cc4c(cc3C[C@@H]3COC(=O)C32)OCO4)cc(OC)c1O (stereo partly specified)", "y"],
  ["CC(N)(/C=C/c1ccccc1)C(=O)O (stereo unspecified)", "n"],
  ["Nc1n[n+](CC(=O)c2ccccc2)c2sc(-c3ccccc3)nn12", "n"],
  ["CC(C)(O)/C1=C/C=C/CCCCCCCCCC1", "n"],
  ["NC(=S)Nc1ccc(S(=O)(=O)Nc2ccc(S(N)(=O)=O)cc2)cc1", "n"]
]}
